System: COLO 205
ASSAY DETAILS: NCI tumour cell line growth inhibition, 48 h
Activity calls are given as the source filed them. Rule as the data show it: active = GI50 up to about 1.1 µM and inactive = higher.

| COMPOUND | GI50 |
| --- | --- |
| Cc1ccc(Nc2nc3c(s2)C(=O)c2ccccc2C3=O)cc1 | 12.3 µM (inactive) |
| COC(=O)c1cnc(Cl)cn1 | > 100 µM (inactive) |
| COc1cccc(C2c3cc4c(cc3OC(N3CCCCC3)C2C)OCO4)c1O (stereo unspecified) | 4.89 µM (inactive) |
| CCN(CC)CC1CCCCCCCCCCC1=O (stereo unspecified) | > 100 µM (inactive) |
| CSc1nc(NCc2ccccc2)c2cnn(COCCO)c2n1 | 29.9 µM (inactive) |
| Cc1cc2c(cc1C)C(=O)C1(C2)Cc2c(C)ccc(C)c2C1=O (stereo unspecified) | > 100 µM (inactive) |
| Cc1nn(C(=O)c2ccccc2O)c2c1C(c1ccccc1O)SC(=N)N2 (stereo unspecified) | > 10 µM (inactive) |
| C[C@]12CC[C@H]3[C@@H](CCC4=C(Br)C(=O)C=C[C@@]43O)[C@@H]1CCC2=O | 61 µM (inactive) |
| C[N+]1(C(CO)Cc2c[nH]c3ccccc23)Cc2ccccc2C1 (stereo unspecified) | > 100 µM (inactive) |
| CN(C)CCCNC(=O)c1cc(NC(=O)c2cc(NS(=O)(=O)c3ccc4c(c3)C(=O)c3ccccc3C4=O)cn2C)cn1C | 83.9 µM (inactive) |
| N=C(N)SCCc1ccncc1 | > 100 µM (inactive) |
